Recorded values, source patent US20230365675A1.

# system: Mutant CD33-GFP M9 (Y49, 50A) on 293FT cells (UniProt P20138)
# Sequence (P20138 other isoform, or with tags, fused parts or gaps mutant): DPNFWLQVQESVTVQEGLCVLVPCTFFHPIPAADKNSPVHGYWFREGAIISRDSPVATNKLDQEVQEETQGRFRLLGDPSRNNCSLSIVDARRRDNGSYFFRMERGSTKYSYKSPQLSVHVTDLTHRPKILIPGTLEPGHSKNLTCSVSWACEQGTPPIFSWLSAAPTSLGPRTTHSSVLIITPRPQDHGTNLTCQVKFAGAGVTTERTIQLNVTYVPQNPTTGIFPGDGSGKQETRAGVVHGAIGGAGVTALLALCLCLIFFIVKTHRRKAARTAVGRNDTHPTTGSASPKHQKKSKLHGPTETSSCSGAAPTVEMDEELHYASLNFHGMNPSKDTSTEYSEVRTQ
# protocol text: FACS, mutant CD33-GFP on 293FT cells
measured quantity: FACS binding data
Give the figure only, with no unit attached.

Please review the following examples before continuing.
binder	measured quantity	recorded measurement
sdCD33_2 (VHH) VHH: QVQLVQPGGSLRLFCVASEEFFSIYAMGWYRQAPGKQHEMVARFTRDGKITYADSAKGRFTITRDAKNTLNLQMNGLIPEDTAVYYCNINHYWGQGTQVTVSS	FACS binding data	0.39
sdCD33_4 (VHH) VHH: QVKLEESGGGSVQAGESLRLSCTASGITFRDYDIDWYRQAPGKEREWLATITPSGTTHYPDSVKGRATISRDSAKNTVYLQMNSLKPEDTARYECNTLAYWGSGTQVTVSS	FACS binding data	97.4
sdCD33_9 (VHH, sdAb from a naive llama phage library; also called 426; sdAb426) VHH: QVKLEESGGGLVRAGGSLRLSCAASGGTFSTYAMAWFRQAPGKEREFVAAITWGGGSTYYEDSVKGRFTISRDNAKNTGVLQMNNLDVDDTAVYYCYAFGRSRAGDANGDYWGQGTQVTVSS	FACS binding data	1.25

API: the following record is the query input.
Please give the measured FACS binding data for this binder: sdCD33_6 (VHH, sdAb from a naive llama phage library; also called 416; sdAb416) VHH: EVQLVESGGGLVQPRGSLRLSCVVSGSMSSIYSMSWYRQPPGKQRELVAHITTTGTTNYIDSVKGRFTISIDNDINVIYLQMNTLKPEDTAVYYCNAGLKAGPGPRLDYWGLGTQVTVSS
99.1
